# credit: ChEMBL document CHEMBL3792318

pKi for assorted compounds
target: Peptidyl-prolyl cis-trans isomerase FKBP5 (Homo sapiens); assay: Binding affinity to FKBP51 FK506-binding domain (1 to 140 amino acids) (unknown origin) incubated for 30 mins using fluorescein-conjugated 2-(5-((2-(3-((R)-3-(3,4-dimethoxyphenyl)-1-((S)-1-(3,3-dimethyl-2-oxopentanoyl)piperidine-2-carbonyloxy)propyl)phenoxy)acetamido)methyl)-6-hydroxy-3-oxo-3H-xanthen-9-yl)benzoic acid by competitive fluorescence polarization assay
pKi: −log10 of the molar value.

{"smiles text": "COc1cc([C@@H](C(=O)N2CCCC[C@H]2C(=O)NC2(C(N)=O)CCOCC2)C2CCCCC2)cc(OC)c1OC", "test system": "Peptidyl-prolyl cis-trans isomerase FKBP5 (Homo sapiens)", "pKi": 5.74}
{"smiles text": "COc1cc([C@@H](C(=O)N2CCCC[C@H]2C(=O)N[C@@H](C(N)=O)C(C)C)C2CCCCC2)cc(OC)c1OC", "test system": "Peptidyl-prolyl cis-trans isomerase FKBP5 (Homo sapiens)", "pKi": 5.30}
{"smiles text": "COc1cc([C@@H](C(=O)N2CCCC[C@H]2C(=O)N[C@@H](Cc2ccccc2)C(N)=O)C2CCCCC2)cc(OC)c1OC", "test system": "Peptidyl-prolyl cis-trans isomerase FKBP5 (Homo sapiens)", "pKi": 5.19}
{"smiles text": "COc1cc([C@@H](C(=O)N2CCCC[C@H]2C(=O)N[C@H](C(N)=O)C2CCCCC2)C2CCCCC2)cc(OC)c1OC", "test system": "Peptidyl-prolyl cis-trans isomerase FKBP5 (Homo sapiens)", "pKi": 5.37}
